- protocolDescription: Acute toxicity (LD50, i.v.)
- measurementConditions: in vivo, iv, read-out: Acute Toxicity (LD₅₀)
- Procedure: (3) The neuromuscular sample which was fixed in the vessel and treated in the above manner was subsequently washed with the salt solution flowing in the vessel under circulation for 40 min. After such washing was complete, the glutamate response was measured on the wahsed neuromuscular sample. […] Accordingly, it was confirmed that the glutamate blocking action of the aninoalcohol derivative was not kept for sufficient period of time. […]

[
  {
    "molecule": "CCCCCC(CCCCC)NCCCN1CCCCC1 [Synthesis Example 2]",
    "measurementUnits": "mg/kg",
    "LD50": 23.3
  },
  {
    "molecule": "CC(C)CCC(NCCCN1CCCCC1)C(O)c1ccccc1 (stereo not shown) [reference compound]",
    "measurementUnits": "mg/kg",
    "LD50": 13.6
  },
  {
    "molecule": "CC(C)CCC(CCC(C)C)NCCCN1CCCCC1 [Synthesis Example 3]",
    "measurementUnits": "mg/kg",
    "LD50": 29.5
  },
  {
    "molecule": "CC(C)CCN(CCCN1CCCCC1)CCC(C)C [Synthesis Example 26]",
    "measurementUnits": "mg/kg",
    "LD50": 24.8
  }
]
